Where these numbers come from: patent US20120316071A1

Target: T1, rHuman EGF R/Fc Chimera, CF (human, UniProt P00533 25-645)
T1 construct: Bought from R&D Systems; also called epidermal growth factor receptor; not shown: Fc of the bought chimera
Assay: ECL Multispot (MSD) assay; antigen spotted on plate, Fab in solution;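 note: fab bound 1 h at 20 °C, detected by TAG-labelled antibody electrochemiluminescence, signal relative to each well's blank, ratio of 4 or more marks a hit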
Catalogue of ECL signal values
Write the number on its own, no unit after it.

binder	ECL signal
Fab VH1-46_IGHD6-6*01_IGHJ1*01 S102A/S103P/S104F/H111F (APFF) & L6_IGKJ1*01 S28Q (Fab, V domains shown, Fab made in E. coli; the variable domains were cloned into Plasmid A (CH1, His and Flag tags) and Plasmid C (kappa CL); also called APFF / S28Q) VH: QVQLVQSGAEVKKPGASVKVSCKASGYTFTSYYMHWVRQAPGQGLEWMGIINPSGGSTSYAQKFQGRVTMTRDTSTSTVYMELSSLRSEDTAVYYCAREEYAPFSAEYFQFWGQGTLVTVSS VL: EIVLTQSPATLSLSPGERATLSCRASQQVSSYLAWYQQKPGQAPRLLIYDASNRATGIPARFSGSGSGTDFTLTISSLEPEDFAVYYCQQRSNWPPWTFGQGTKVEIKR	517
Fab VH1-46_IGHD6-6*01_IGHJ1*01 S102A/S103P/S104F/H111F (APFF) & L6_IGKJ1*01 S28L (Fab, V domains shown, Fab made in E. coli; the variable domains were cloned into Plasmid A (CH1, His and Flag tags) and Plasmid C (kappa CL); also called APFF / S28L) VH: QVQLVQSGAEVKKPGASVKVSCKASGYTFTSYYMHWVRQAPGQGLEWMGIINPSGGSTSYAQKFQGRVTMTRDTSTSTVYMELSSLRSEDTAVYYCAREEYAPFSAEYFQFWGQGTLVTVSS VL: EIVLTQSPATLSLSPGERATLSCRASQLVSSYLAWYQQKPGQAPRLLIYDASNRATGIPARFSGSGSGTDFTLTISSLEPEDFAVYYCQQRSNWPPWTFGQGTKVEIKR	378

Data request: What ECL signal value was documented for this binder, Fab VH1-46_IGHD6-6*01_IGHJ1*01 S102A/S103P/S104F/H111F (APFF) & L6_IGKJ1*01 S28A (Fab, V domains shown, Fab made in E. coli; the variable domains were cloned into Plasmid A (CH1, His and Flag tags) and Plasmid C (kappa CL); also called APFF / S28A) VH: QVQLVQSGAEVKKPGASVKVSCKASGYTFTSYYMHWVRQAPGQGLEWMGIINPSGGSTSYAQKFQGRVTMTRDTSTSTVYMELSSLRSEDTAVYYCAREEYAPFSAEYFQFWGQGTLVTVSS VL: EIVLTQSPATLSLSPGERATLSCRASQAVSSYLAWYQQKPGQAPRLLIYDASNRATGIPARFSGSGSGTDFTLTISSLEPEDFAVYYCQQRSNWPPWTFGQGTKVEIKR ?
Data returned: 351
